- Tested on: A549 NSCLC
- ASSAY SUMMARY: NCI tumour cell line growth inhibition, 48 h
MEASURED METRIC: TGI

// known answers, use as guide
# MOLECULE, TGI
measured = [
    ("CC(=O)OC(CCC1(C)OC1COc1ccc(CCNC(=O)c2ccccc2)cc1)C(C)(C)OC(C)=O (stereo unspecified)", "> 100 µM"),
    ("Nc1nc(N)c2ncn(Cc3ccccc3CCl)c2n1", "> 100 µM"),
    ("NCCCNC1(c2cc3ccccc3s2)CCCCC1", "21.5 µM"),
    ("COc1ccc2c(c1)C(=O)c1c-2c(Nc2ccc(Cl)cc2)nc2ccccc12", "39.7 µM"),
]

Proceeding to the next molecule to report its TGI.
stdin: Please report the recorded TGI for COc1ccc(/C(C#N)=C/c2ccc(OC)c(OC)c2)cc1 .
stdout: > 100 µM

====

- System: SK-MEL-5 melanoma
- ASSAY SUMMARY: NCI tumour cell line growth inhibition, 48 h
Recorded TGI determines the label; the label ranges are lower range: < 4 µM; middle range: ≥ 4 µM and < 30 µM; upper range: ≥ 30 µM

# MOLECULE, ASSIGNED LABEL
data = [
    ("O=C(/C=C/c1ccc(O)c(O)c1)c1cc(O)cc(O)c1", "upper range"),
    ("O=C1/C(=C/c2cccc(Br)c2)CSC/C1=C\\c1cccc(Br)c1", "lower range"),
    ("CCc1ccc2nc(-c3ccc(O)cc3)sc2c1", "upper range"),
    ("CC(C)CCN=C(N)c1ccc(N2CCN(c3ccc(C(N)=NCCC(C)C)cc3)CC2)cc1", "middle range"),
    ("CC(=O)c1ccc(NC(=O)C(=O)Nn2c(=S)[nH]c3ccccc3c2=O)cc1", "upper range"),
    ("COC(=O)C1CCC(=O)N1C(c1ccc(OC)cc1)c1ccc(OC)cc1 (configuration not stated)", "upper range"),
]

stdin: Hi there! Could you help me figure out the category for COc1ccc(/C=C2\CCC(CNc3ccc(OC)cc3)C2=O)cc1 (configuration not stated) please?
stdout: upper range

stdin: Hi there! Could you help me figure out the category for O=C(Cc1nc2ccccc2s1)Nc1cccc(C(F)(F)F)c1 please?
stdout: upper range

stdin: Hi there! Could you help me figure out the category for CN1c2ccccc2C(C)(C)C12C=Cc1cc(O)ccc1O2 (configuration not stated) please?
stdout: middle range

stdin: Hi there! Could you help me figure out the category for N=c1c2c(-c3ccccc3)c[nH]c2ncn1N please?
stdout: upper range

stdin: Hi there! Could you help me figure out the category for c1cc(CNCCN2CCNCC2)ccn1 please?
stdout: upper range

stdin: Hi there! Could you help me figure out the category for CCOC(=O)C(Cl)(NC(=O)c1c(F)c(F)c(F)c(F)c1F)C(F)(F)F (configuration not stated) please?
stdout: upper range

====

- Tested on: SK-OV-3 ovarian
- ASSAY SUMMARY: NCI tumour cell line growth inhibition, 48 h
Measured TGI of individual entries

# MOLECULE, MEASUREMENT
measured = [
    ("CC(C)C1=CCC2C(=C1)CCC1C(C)(C(=O)O)CCCC21C (stereo unspecified) (tested in a mixture with another compound)", "> 100 µM"),
    ("CNC(=O)N(C)COC", "> 100 µM"),
    ("O=CC[C@H]1CCc2ccccc2C12CCC(=O)CC2", "> 100 µM"),
    ("CCOC(=O)C(Cl)(NC(=O)c1c(F)c(F)c(F)c(F)c1F)C(F)(F)F (stereo unspecified)", "> 100 µM"),
]

Proceeding to the next molecule to report its TGI.
stdin: Please report the recorded TGI for Cn1ccnc1C(=O)/C=C/c1ccccc1 .
stdout: 35.9 µM
